# TARGET OR SYSTEM: UniProt:Q01726
# Sequence (Q01726 whole entry, looked up): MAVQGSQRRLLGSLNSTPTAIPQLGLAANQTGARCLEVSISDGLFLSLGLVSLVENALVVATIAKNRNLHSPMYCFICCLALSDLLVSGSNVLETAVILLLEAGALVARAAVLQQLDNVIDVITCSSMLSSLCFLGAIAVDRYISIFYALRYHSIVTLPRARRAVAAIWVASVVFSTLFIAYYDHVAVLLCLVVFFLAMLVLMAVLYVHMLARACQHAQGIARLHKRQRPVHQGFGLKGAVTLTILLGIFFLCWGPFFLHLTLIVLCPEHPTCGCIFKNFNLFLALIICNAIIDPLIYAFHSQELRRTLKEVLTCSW
# ASSAY REMARKS: Activity against hMC1R transfected in HEK293 cells by intracellular cAMP accumulation
# Format: functional, cell-based
Hi there, I'd appreciate the recorded %max for every entry that follows.
Kindly answer with a numeric value in %, unit omitted.

Per the record, CCCC[C@@H]1NC(=O)CC[C@@H](C(N)=O)NC(=O)[C@H](Cc2c[nH]c3ccccc23)NC(=O)[C@H](CCCN=C(N)N)NC(=O)[C@@H](Cc2ccccc2)NC(=O)[C@@H](CCCN=C(N)N)NC1=O has %max of 0

So, CCCC[C@@H]1NC(=O)CC[C@@H](C(N)=O)NC(=O)[C@H](Cc2c[nH]c3ccccc23)NC(=O)[C@H](CCCN=C(N)N)NC(=O)[C@@H](Cc2ccc3ccccc3c2)NC(=O)[C@H](CCC(N)=O)NC1=O ? Its %max was 0

The recorded %max for CCCC[C@@H]1NC(=O)CC[C@@H](C(N)=O)NC(=O)[C@H](Cc2c[nH]c3ccccc23)NC(=O)[C@H](CCCN=C(N)N)NC(=O)[C@@H](Cc2ccccc2)NC(=O)[C@@H](CCC(N)=O)NC1=O is 20

Origin of measurements: ChEMBL document CHEMBL1138987
